Task for the reader: assign each of the following compounds its reported GI50.
System: DMS-114
PROTOCOL: Tested in vitro for cytotoxicity in DMS114 cell lines
Type: functional
CONDITIONS_USED: Homo sapiens
One number for each entry, in µM.

These recorded examples may help you get a feel for the data.
- SUBSTANCE_SMILES: "Cc1c2cc[n+](CC(=O)O)cc2c(C)c2c1[nH]c1ccccc12"
  TESTED_SYSTEM: "DMS-114"
  OBSERVED_RESULT: 76.8
- SUBSTANCE_SMILES: "Cc1c2cc[n+](CC#N)cc2c(C)c2c1[nH]c1ccccc12"
  TESTED_SYSTEM: "DMS-114"
  OBSERVED_RESULT: 44.7

Pending compound:
Asked: Return GI50 measured with DMS-114 given this compound: `COC[n+]1ccc2c(C)c3[nH]c4ccc(OC)cc4c3c(C)c2c1`
Given back: 1.32

---

System: Malme-3M
PROTOCOL: Tested in vitro for cytotoxicity in MALME-3M
Format: functional
CONDITIONS_USED: Homo sapiens
PROPERTY_NAME: GI50 (µM)
One number for each entry, in µM.

These recorded examples may help you get a feel for the data.
- SUBSTANCE_SMILES: "COCN1C=Cc2c(c(C)c3c([nH]c4ccccc43)c2C)C1"
  OBSERVED_RESULT: 8.87
- SUBSTANCE_SMILES: "COc1ccc2[nH]c3c(C)c4c(c(C)c3c2c1)CN(C)C=C4"
  OBSERVED_RESULT: 1.44
- SUBSTANCE_SMILES: "COC[n+]1ccc2c(C)c3[nH]c4ccc(OC)cc4c3c(C)c2c1"
  OBSERVED_RESULT: 1.92
- SUBSTANCE_SMILES: "COC[n+]1ccc2c(C)c3[nH]c4ccccc4c3c(C)c2c1"
  OBSERVED_RESULT: 0.647

# per-item lookup of GI50; items listed below
1. CSC[n+]1ccc2c(C)c3[nH]c4ccccc4c3c(C)c2c1
2. Cc1c2cc[n+](CC(=O)O)cc2c(C)c2c1[nH]c1ccccc12
3. Cc1c2cc[n+](CC#N)cc2c(C)c2c1[nH]c1ccccc12

Given back:
[1.99, 26.3, 27.2]

# per-item lookup of GI50; items listed below
1. CC(=O)O[C@@H]1[C@@H](OC(C)=O)[C@@H](N2C=Cc3c(c(C)c4c([nH]c5ccccc54)c3C)C2)OC[C@@H]1OC(C)=O
2. COc1ccc2[nH]c3c(C)c4cc[n+](C)cc4c(C)c3c2c1

Given back:
1: 30.2; 2: 5.27

---

Task for the reader: assign each of the following molecules its reported log10(GI50).
Test system: DMS-114
PROTOCOL: Tested in vitro for cytotoxicity in DMS114 cell lines
Format: functional
CONDITIONS_USED: Homo sapiens
Quick note: numbers are log10 of GI50, with nM as the unit.

These recorded examples may help you get a feel for the data.
- MOLECULE: "CSC[n+]1ccc2c(C)c3[nH]c4ccccc4c3c(C)c2c1"
  log10(GI50): 3.43
- MOLECULE: "Cc1ccc2[nH]c3c(C)c4c(c(C)c3c2c1)CN(C)C=C4"
  log10(GI50): 2.64
- MOLECULE: "CC(=O)O[C@@H]1[C@@H](OC(C)=O)[C@@H](N2C=Cc3c(c(C)c4c([nH]c5ccccc54)c3C)C2)OC[C@@H]1OC(C)=O"
  log10(GI50): 4.19
- MOLECULE: "COCN1C=Cc2c(c(C)c3c([nH]c4ccccc43)c2C)C1"
  log10(GI50): 4.02
- MOLECULE: "COc1ccc2[nH]c3c(C)c4c(c(C)c3c2c1)CN(C)C=C4C=O"
  log10(GI50): 3.40
- MOLECULE: "COC[n+]1ccc2c(C)c3[nH]c4ccccc4c3c(C)c2c1"
  log10(GI50): 3.36
- MOLECULE: "Cc1c2ccncc2c(C)c2c1[nH]c1ccccc12"
  log10(GI50): 2.74
- MOLECULE: "Cc1c2cc[n+](C[S+](C)[O-])cc2c(C)c2c1[nH]c1ccccc12 (stereo not given)"
  log10(GI50): 3.82
- MOLECULE: "COc1ccc2[nH]c3c(C)c4cc[n+](C)cc4c(C)c3c2c1"
  log10(GI50): 2.91

Pending molecule:
Asked: Return log10(GI50) measured with DMS-114 given this molecule: `COc1ccc2[nH]c3c(C)c4c(c(C)c3c2c1)CN(C)C=C4`
Given back: 2.72

---

System: Malme-3M
PROTOCOL: Tested in vitro for cytotoxicity in MALME-3M
Format: functional
CONDITIONS_USED: Homo sapiens
Task for the reader: assign each of the following compounds its reported GI50.
Answers are plain numbers, in nM.

# per-item lookup of GI50; items listed below
1. Cc1c2ccncc2c(C)c2c1[nH]c1ccccc12
2. COc1ccc2[nH]c3c(C)c4c(c(C)c3c2c1)CN(C)C=C4C=O
3. Cc1ccc2[nH]c3c(C)c4c(c(C)c3c2c1)CN(C)C=C4

Given back:
1. 2520
2. 40000
3. 1720
